Tested on: SR leukemia
measurement notes: NCI-60 one-dose screen, 48 h (100 = growth as untreated, 0 = no growth, -100 = all killed)
condition notes: 10 µM unless noted
Compounds without any hit were thinned out: in the full panel of roughly 83,000, 20% have a hit.
Below, each of the molecules is paired with its reported growth value.

molecule	measured on	growth (%)
Clc1cn2cc(-c3ccc(Cl)c(Cl)c3Cl)nc2s1	SR leukemia	75.5
COc1ccc(/C=C(/C(=O)N2CCN(c3ccccc3)CC2)c2cc(OC)c(OC)c(OC)c2)cc1O	SR leukemia	9.53
Cc1cc(C#Cc2ccccc2)ccc1-n1c(/C=C/c2ccc(F)cc2)nc2ccccc2c1=O	SR leukemia	64.8
NS(=O)(=O)c1ccc(N2N=C(c3cccs3)CC2c2ccccc2O)cc1 (stereo unspecified)	SR leukemia	1.1
Oc1ccc(-c2cnc(-c3ccccc3)[nH]2)c(O)c1	SR leukemia	40.2
COc1ccc(NC(=O)C2c3ccccc3C(=O)N(CC(C)C)C2c2cccs2)cc1 (stereo unspecified)	SR leukemia	96.5
C/C(=N\OC(=O)Nc1cccc(Cl)c1)c1ccccc1	SR leukemia	74
Cc1cc(O)c(C2=NN(c3ccc(S(N)(=O)=O)cc3)C(c3ccc(Cl)cc3)C2)c(C)c1Cl (stereo unspecified)	SR leukemia	-24.1
CC(=O)N(C)c1ccc(Nc2cc(C)[nH]c3ccc4ncnc4c23)cc1	SR leukemia	11.1
COc1ccc(Br)c2ccccc12	SR leukemia	96
O=c1[nH]cnc2nc[nH]c12	SR leukemia	48.8

###

System: SK-MEL-5 melanoma
measurement notes: NCI-60 one-dose screen, 48 h
condition notes: 10 µM unless noted
About 83,000 compounds went through this panel and 20% of them were active in at least one assay; those are over-represented in the sample as a whole. Calls of active or inactive are those of the source. The calls were made as follows: active = growth percent below 10; inactive = the rest.
Outcomes: t for active, f for inactive

compound	label class
Cc1nc([C@H]2CC[C@H]3[C@@H]4CCC5=CC(=O)CC[C@]5(C)[C@H]4CC[C@]23C)cs1	f
COc1cc2nccc(Oc3ccc(NC(=O)C4(C(=O)Nc5ccc(F)cc5)CC4)cc3)c2cc1Oc1ccc(N)cn1	f
Clc1ccc(-c2nc(Br)cn3ccnc23)cc1	f
COc1ccc2c(c1)CCCC21C(=O)Nc2ccccc21 (stereo not given)	f
CCCCCCCCCCCCCCCCCC1=NC(C)(C)CN1C(C)(C)CO	t
COc1ccc2[nH]cc(C(c3ccc(Cl)cc3)N3CCCC3)c2c1 (stereo not given)	f
N#Cc1ccc(NC(=O)Nc2nc3ccc(OC(F)(F)F)cc3s2)cc1	t
CCOC(=O)c1ccccc1SC(C[N+](=O)[O-])c1ccccc1 (stereo not given)	f
COc1ccc(-c2nsc3c2NC(=O)CC3c2cccc(F)c2)cc1 (stereo not given)	f
C#CC[C@@H]1C[C@]2(C)[C@H]3CC=C4[C@H]5[C@@H](C)[C@H](C)CC[C@]5(C(=O)NCCCCN)CC[C@@]4(C)[C@]3(C)CC[C@H]2C(C)(C)[C@H]1OC(C)=O	f

###

Tested on: SK-MEL-5 melanoma
measurement notes: NCI-60 one-dose screen, 48 h (100 = growth as untreated, 0 = no growth, -100 = all killed)
condition notes: 10 µM unless noted
Compounds without any hit were thinned out: in the full panel of roughly 83,000, 20% have a hit.
growth by entry:

molecule	measured on	growth / %
COc1ccc([C@@H]2[C@@H](Cl)C(=O)N2c2cc(OC)c(OC)c(OC)c2)cc1C	SK-MEL-5 melanoma	-13.8
CC[C@H](Nc1nc(C)nc(N)c1C#N)c1nc2cccc(NCc3ccc(C(=O)NO)cc3)c2c(=O)n1-c1ccccc1	SK-MEL-5 melanoma	-20.4
O=C(Nc1ccc(Oc2ccc(NC(=O)Nc3ccccc3Cl)cc2)cc1)Nc1ccccc1Cl	SK-MEL-5 melanoma	62.5
CCCCCCCCCCCCCCCc1cc(O)ccc1[N+](=O)[O-]	SK-MEL-5 melanoma	76.1
Oc1c(-c2cc(C(F)(F)F)[nH]n2)cc(Cl)c(OCc2ccc(Cl)cc2)c1-c1ccc(Cl)c(C(F)(F)F)c1	SK-MEL-5 melanoma	-60.2
CCC(=O)NC(O)C(Cl)(Cl)C(C)Cl (centres undefined)	SK-MEL-5 melanoma	97.7
COC(=O)C(CCC(=O)CCl)N1C(=O)c2ccccc2C1=O (centres undefined)	SK-MEL-5 melanoma	71.3
CCC(C)C1NC(=O)c2nc(oc2-c2ccccc2)-c2csc(n2)-c2csc(n2)-c2nc(oc2C)-c2coc(n2)CNC(=O)C(C(C)CC)NC1=O (centres undefined)	SK-MEL-5 melanoma	-91.3
CCCc1n(Cc2ccc3ccccc3c2)c2ccccc2[n+]1Cc1ccc2ccccc2c1	SK-MEL-5 melanoma	-97.3

###

Test system: SN12C renal
measurement notes: NCI-60 one-dose screen, 48 h (100 = growth as untreated, 0 = no growth, -100 = all killed)
condition notes: 10 µM unless noted
Compounds without any hit were thinned out: in the full panel of roughly 83,000, 20% have a hit.
Overview of recorded growth for various molecules

molecule	growth, %
CCN1CCN(Cc2ccc(NC(=O)c3nc4ccc5[nH]ncc5c4c4c3CCCC4)cc2C(F)(F)F)CC1	-75.6
Cc1ccc(NC(=O)c2[nH]c(SCCN(C)C)nc2-c2ccc(F)cc2)cc1Nc1ccc2ncn(C)c(=O)c2c1	64.6
CCN(CC)CCCC(C)Nc1cnc(C(=O)Nc2cc(C)cc3cccnc23)cn1 (stereo not given)	77.9
CCC(=O)NC(O)C(Cl)(Cl)C(C)Cl (stereo not given)	98.8
COc1ccc(Nc2ncnc3c2sc2nc(C)cc(C)c23)cc1	99.7
Clc1ccccc1Nc1nnc(-c2ccncc2)s1	86
COc1ccc(/C=C(/C(=O)N2CCN(c3ccccc3)CC2)c2cc(OC)c(OC)c(OC)c2)cc1O	31.4
O=C(c1ccccc1)N(CCCCl)C(=O)N(CCCCl)C(=O)c1ccccc1	94.6
O=C1C=CC(=O)N1CO	99
CS(=O)(=O)Nc1cc(-c2cc3ncc(C#N)c(Nc4ccc(Oc5ccccc5)c(Cl)c4)c3s2)cnc1Cl	45.7

###

molecules and their reported growth
System: MDA-MB-435 melanoma
measurement notes: NCI-60 one-dose screen, 48 h (100 = growth as untreated, 0 = no growth, -100 = all killed)
condition notes: 10 µM unless noted
About 83,000 compounds went through this panel and 20% of them were active in at least one assay; those are over-represented in the sample as a whole.
measured quantity: growth (%)

molecule	measurement
Fc1[nH]nc2ccc([C@@H]3Nc4ccc5[nH]ncc5c4[C@H]4C5CCC(C5)[C@@H]34)cc12 (stereo not given in full)	-42.5
CSC1=NC(=Nc2c(C)cccc2C)C2(CCC(C(C)(C)C)CC2)N1c1ccc(Cl)cc1 (stereo not given)	36.5
CCOC(C)(c1ccc(Cl)cc1)C1CCNCC1 (stereo not given)	109
COc1cccc(OCC(O)CN2CCN(c3ccccc3)CC2)c1 (stereo not given)	121
CC(=O)c1cc(C(=O)c2ccc3c(c2)Sc2ccccc2N3)c2c(C)cccn12	-26.9

###

Test system: SR leukemia
measurement notes: NCI-60 one-dose screen, 48 h (100 = growth as untreated, 0 = no growth, -100 = all killed)
condition notes: 10 µM unless noted
This is part of a sample that, as a whole, favours compounds with a hit. Of some 83,000 tested, about 20% had one in any assay.

molecule	growth (%)
COC(=O)C(CCC(=O)CCl)N1C(=O)c2ccccc2C1=O (stereo not given)	8.24
CCCCn1c(-c2ccc(F)cc2)nc2cc(OC)c(OC)cc2c1=O	34.4
COc1ccc(/C=C(/C(=O)N2CCN(c3ccccc3)CC2)c2cc(OC)c(OC)c(OC)c2)cc1N	12.5
O=C(Nc1ccc2ncnc(Nc3ccc(F)c(Cl)c3)c2c1)c1cccs1	11.3
O=C1/C(=C\c2cccn2Cc2ccc(F)cc2)c2ccccc2N1c1c(Cl)cccc1Cl	76
Cc1c(O)c(=O)n(-c2ccccc2)n1C	91.4
CN1CCN(Cc2ccc(NC(=O)c3cncc(C#Cc4ccc(N)nc4)c3)cc2C(F)(F)F)CC1	1.34
CCc1ccc2c(c1)N(CCO)C1=C(C(=O)OC1)C2c1cccc(Cl)c1 (stereo not given)	20.2
CN1CCN(Cc2ccc(NC(=O)c3ccc(C#N)c(C#Cc4cnc(N)c5ncccc45)c3)cc2C(F)(F)F)CC1	9.25
O=C(Nc1ccccc1Cl)Oc1ccc2ccccc2c1	71.1
O=C(OCc1ccc2c(Br)cc(Br)c(O)c2n1)c1cc2ccccc2[nH]1	3.2
C#CC[C@@H]1C[C@]2(C)[C@H]3CC=C4[C@H]5[C@@H](C)[C@H](C)CC[C@]5(C(=O)NCCCN5CCN(CCCN)CC5)CC[C@@]4(C)[C@]3(C)CC[C@H]2C(C)(C)[C@H]1OC(C)=O	-5.62
Nc1n[nH]c2ccc([C@@H]3Nc4c(F)cc5[nH]ncc5c4[C@H]4C5CCC(C5)[C@@H]34)cc12 (stereo not given in full)	42.8
COc1ccc(C2=Nn3c(nnc3-c3ccc(Cl)cc3N)SC2)cc1	102
FC1(F)CCN(Cc2c[nH]c3cc(Cl)ccc23)C[C@H]1CCc1ccccc1	51.6
CCOC(=O)C(Nc1ccccc1)C(=O)OCC	106
CC(C)NCCCCCNc1cc(O)cc2cccnc12	22.5
CCN(CC)Cc1cc(Nc2ccnc3cc(Cl)ccc23)cc(-c2ccc(Cl)cc2)c1O	-22.7
O=C1OCC2=C1C(c1ccc(Cl)c(Cl)c1)c1cc3c(cc1N2CCO)CCC3 (stereo not given)	33.7
Cc1cc(C)cc(Nc2cc(C)nc3nc(C(F)(F)F)nn23)c1	29.6
